Cited source: patent US5321030A

Experiment: in vivo
Assay type: in vivo
Conditions: mouse, in vivo, 100 mg/kg; read-out: Survivors/Total (%)
Readout name: survival (%)
Provide only the numeric value, understood in %.

Problem: Quick one: survival for Nc1nc2c(ncn2COCCO)c(=O)[nH]1 [acyclovir] ?
Result: 100

* * *

Assay: Drug cytotoxicity in CPE assay (monolayer death in absence of virus)
Conditions: monkey, vero cells
Readout name: cytotoxicity at 41700 µM (%)
Provide only the numeric value, understood in %.

Problem: Quick one: cytotoxicity at 41700 µM for N=C1NCC(=O)N1CC(=O)O ?
Result: 4

* * *

Assay: Cytotoxicity in plaque reduction assay, MRC-5 cells
Assay type: cell-based, human
Conditions: human, mrc-5 cells, Table 7; read-out: CD50 (the source's name)
Readout name: CC50

Problem: Quick one: CC50 for NC1=NCCN1CC(=O)O ?
Result: > 10000 µg/mL

* * *

Assay: in vivo
Assay type: in vivo
Settings: mouse, in vivo, 200 mg/kg; read-out: Survivors/Total (%)
Readout name: survival
// unit must come after the numeric part

Problem: Quick one: survival for Nc1nc2c(ncn2COCCO)c(=O)[nH]1 [acyclovir] ?
Result: 100%

* * *

Test: in vivo
Assay type: in vivo
Conditions: mouse, in vivo, 1 %; read-out: Survivors/Total (%)
Readout name: survival (%)
Provide only the numeric value, understood in %.

Problem: Quick one: survival for NC1=NCCN1CC(=O)O ?
Result: 100

* * *

Assay: Cytotoxicity in plaque reduction assay, Hs68 cells
Assay type: cell-based
Conditions: human, Table 5, read-out: CD50 (the source's name)
Readout name: CC50

Problem: Quick one: CC50 for NC1=NCCN1CC(=O)O ?
Result: > 4000 µg/mL

* * *

Assay: in vivo
Assay type: in vivo
Conditions: mouse, in vivo, 50 mg/kg; read-out: Survivors/Total (%)
Readout name: survival (%)
Provide only the numeric value, understood in %.

Problem: Quick one: survival for Nc1nc2c(ncn2COCCO)c(=O)[nH]1 ?
Result: 100

* * *

Assay: Cytotoxicity in plaque reduction assay, MRC-5 cells
Assay type: cell-based, human
Conditions: human, mrc-5 cells, Table 6; previous data; read-out: CD50 (the source's name)
Readout name: CC50

Problem: Quick one: CC50 for Nc1nc(O)c2ncn(COC(CO)CO)c2n1 [DHPG, dihydroxypropoxymethylguanine, reference compound] ?
Result: > 1000 µg/mL

* * *

Assay: Cytotoxicity in plaque reduction assay, MRC-5 cells
Type: cell-based, human
Details: human, mrc-5 cells, Table 9A; previous data; read-out: CD50 (the source's name)
Readout name: CC50

Problem: Quick one: CC50 for Nc1nc(O)c2ncn(COC(CO)CO)c2n1 [DHPG, dihydroxypropoxymethylguanine, reference compound] ?
Result: > 1000 µg/mL

* * *

Assay: in vivo
Type: in vivo
Conditions: mouse, in vivo, 25 mg/kg; read-out: Survivors/Total (%)
Readout name: survival (%)
Provide only the numeric value, understood in %.

Problem: Quick one: survival for Nc1nc2c(ncn2COCCO)c(=O)[nH]1 ?
Result: 100

* * *

CC50 values by entry
Test: in vitro
Details: monkey, vero cells

• NC1=NCCN1CC(=O)O [cyclocreatine, 1-carboxymethyl-2-iminoimidazolidine] = > 4000 µg/mL

Kindly review the next molecule as well.
Problem: Quick one: CC50 for Nc1nc2c(ncn2COCCO)c(=O)[nH]1 [acyclovir] ?
Result: > 1000 µg/mL

* * *

Experiment: Cytotoxicity in plaque reduction assay, MRC-5 cells
Type: cell-based, human
Conditions: human, mrc-5 cells, Table 7; previous data; read-out: CD50 (the source's name)
Readout name: CC50

Problem: Quick one: CC50 for Nc1nc(O)c2ncn(COC(CO)CO)c2n1 [DHPG, dihydroxypropoxymethylguanine, reference compound] ?
Result: > 1000 µg/mL
